Source: patent US12479821B2

Target: CYP4A (Homo sapiens, UniProt Q02928)
Construct: host or cells: bactosome, i.e. bacterial membrane preparation (own knowledge of the term)
Sequence (Q02928 5-519): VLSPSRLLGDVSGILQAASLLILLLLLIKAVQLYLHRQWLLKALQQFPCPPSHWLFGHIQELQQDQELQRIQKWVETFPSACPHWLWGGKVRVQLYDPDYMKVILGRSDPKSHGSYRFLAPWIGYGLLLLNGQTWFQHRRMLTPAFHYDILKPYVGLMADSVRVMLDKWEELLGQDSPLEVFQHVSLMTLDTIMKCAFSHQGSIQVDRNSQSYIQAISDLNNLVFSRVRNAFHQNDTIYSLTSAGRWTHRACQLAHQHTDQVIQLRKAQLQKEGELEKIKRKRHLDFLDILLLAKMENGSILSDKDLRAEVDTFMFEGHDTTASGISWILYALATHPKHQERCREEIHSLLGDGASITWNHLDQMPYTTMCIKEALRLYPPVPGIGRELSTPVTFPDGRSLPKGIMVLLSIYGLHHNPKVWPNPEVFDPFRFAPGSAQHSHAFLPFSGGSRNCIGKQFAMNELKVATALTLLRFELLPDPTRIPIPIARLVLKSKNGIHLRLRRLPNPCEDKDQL
Assay: CYP4A enzyme assay (Luciferin-ME luminescence, CYP4A bactosome)
Type: biochemical
Settings: compound concentration 5 μM; 75% or more; read-out: % Inhibition 75% or more
Some compounds, each annotated with its measured inhibition at 5 µM.

# Compound, inhibition at 5 µM
rows = [
    ("CC(=O)Nc1ccc(S(=O)(=O)N2CCC[C@@H](C(=O)N3CCN(c4ccnc5cc(F)ccc45)CC3)C2)cc1 [Formula 46]", "≥ 75%"),
    ("CN(C)c1ccc(S(=O)(=O)N2CCCC(C(=O)N3CCN(c4ccnc5cc(F)ccc45)CC3)C2)cc1 (stereo not drawn)", "≥ 75%"),
    ("COc1cccc(S(=O)(=O)N2CCCC(C(=O)N3CCN(c4ccnc5cc(F)ccc45)CC3)C2)c1 (stereo not drawn) [Formula 58]", "≥ 75%"),
    ("CN(C)c1ccc(S(=O)(=O)N2CCC[C@H](C(=O)N3CCN(c4ccnc5ccccc45)CC3)C2)cc1 [Formula 80]", "≥ 75%"),
]

Input line: Notebook entry, CYP4A (Homo sapiens, UniProt Q02928) assay: inhibition at 5 µM of CCCCc1ccc(N=CNO)c(C)c1 [HET-0016, reference compound] = ?
Output line: ≥ 75%

Input line: Notebook entry, CYP4A (Homo sapiens, UniProt Q02928) assay: inhibition at 5 µM of CCN(CC)c1ccc(S(=O)(=O)N2CCCC(C(=O)N3CCN(c4ccnc5cc(F)ccc45)CC3)C2)cc1 (stereo not drawn) [Formula 52] = ?
Output line: ≥ 75%

Input line: Notebook entry, CYP4A (Homo sapiens, UniProt Q02928) assay: inhibition at 5 µM of O=C(C1CCCN(S(=O)(=O)c2cccc(-c3cncnc3)c2)C1)N1CCN(c2ccnc3cc(F)ccc23)CC1 (stereo not drawn) [Formula 112] = ?
Output line: ≥ 75%

Input line: Notebook entry, CYP4A (Homo sapiens, UniProt Q02928) assay: inhibition at 5 µM of Cc1cc(N2CCN(C(=O)C3CCCN(S(=O)(=O)c4ccc(-c5ccncc5)cc4)C3)CC2)c2ccccc2n1 (stereo not drawn) [Formula 102] = ?
Output line: 0%

Input line: Notebook entry, CYP4A (Homo sapiens, UniProt Q02928) assay: inhibition at 5 µM of O=C(C1CCCN(S(=O)(=O)c2ccc([N+](=O)[O-])cc2)C1)N1CCN(c2ccnc3cc(F)ccc23)CC1 (stereo not drawn) [Formula 50] = ?
Output line: ≥ 75%

Input line: Notebook entry, CYP4A (Homo sapiens, UniProt Q02928) assay: inhibition at 5 µM of CC(=O)Nc1ccc(S(=O)(=O)N2CCC[C@H](C(=O)N3CCN(c4ccnc5cc(F)ccc45)CC3)C2)cc1 [Formula 47] = ?
Output line: ≥ 75%

Input line: Notebook entry, CYP4A (Homo sapiens, UniProt Q02928) assay: inhibition at 5 µM of O=C(C1CCCN(S(=O)(=O)c2ccc(-c3ccncc3)cc2)C1)N1CCN(c2ccnc3ccccc23)CC1 (stereo not drawn) [Formula 113] = ?
Output line: ≥ 75%

Input line: Notebook entry, CYP4A (Homo sapiens, UniProt Q02928) assay: inhibition at 5 µM of CN(C)c1ccc(S(=O)(=O)N2CCC[C@H](C(=O)N3CCN(c4ccnc5cc(F)ccc45)CC3)C2)cc1 = ?
Output line: ≥ 75%
